protocol description: P. aeruginosa biofilm formation inhibitors, primary screen, PAO1 strain, BacTiter-Glo luminescence, LB-PBS (AID 1144)
condition set: 12 h, higher = more signal
measurement type: z-score
One number for each entry.

1) CC(C)(C)N1C(=O)[C@H]2[C@H]3[C@H](O)[C@H](O)CC(=NOC[C@@H](O)COCc4ccco4)[C@H]3CC[C@H]2C1=O	-0.486

Please supply z-score for each of the following items, keeping them in order.
1. COC(=O)CC=C[C@@H](C)[C@@H](C=NOC[C@@H](O)[C@H]1O[C@@H]2OC(C)(C)O[C@@H]2[C@H]1O)OC
2. CO[C@@H]1COC(=O)CC=C[C@H](C)[C@H](OC)COC(=O)[C@@H]2CCCN2C(=O)CC=C[C@H]1C
3. Cc1cc2c(nc1C)CCCCN2CC(O)CN1CCCc2nc(-c3ccc(Br)cc3)ccc21 (configuration not stated)
4. Cc1ccc(C(C)C)n1C(=O)OC(C)(C)C

1: 0.601; 2: 0.243; 3: -0.708; 4: -1.5

For every item below, please supply its z-score.
1. C[C@]12CCC3c4ccc(OCC5CO5)cc4CCC3C1CC[C@@H]2O (some centres not stated)
2. O=C1[C@H]2[C@H]3[C@H](O)[C@H](O)CC(=NOC[C@@H](O)COCc4ccco4)[C@@H]3CC[C@H]2C(=O)N1Cc1ccc2c(c1)OCO2

[-0.168, 0.878]

// each compound listed below needs its z-score
1. COc1cccc([C@H]2Oc3ccc(OC)cc3C(=NO[C@@H](C)c3cc(-c4c(C)cc(C)cc4C)no3)[C@@H]2O)c1
2. O=C1C2=CC[C@H]3C(=O)N(C4CCCCC4)C(=O)[C@H]3[C@H]2[C@H](O)[C@@H]2O[C@H]12
3. CCOC(=O)[C@H](CC(C)C)NC(=O)CCC1CC(OC(=O)NCCc2ccc(F)cc2)CC2(CCCC(COC(=O)NCCCN3CCCC3=O)O2)O1 (some centres not stated)
4. COc1ccc(COC(=O)NN=C2C[C@@H](O)[C@@H](O)[C@@H]3[C@@H]4C(=O)N(C5CCCCC5)C(=O)[C@@H]4CC[C@@H]23)cc1
5. C=CC[C@@H]1C=CC(ON=C(C)C)[C@@H](CO)O1 (some centres not stated)

[0.409, -0.366, -0.31, 0.755, 0.0414]

====

protocol description: modulators of HCV replicon luciferase signal, primary screen, HCV replication inhibitor project, Huh7 cells, luciferase reporter (AID 1109);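 also: huh7 hepatoma cells harbouring a luciferase neomycin HCV replicon reporter; luciferase luminescence as measure of HCV replicon replication; test concentration not given here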
condition set: 48 h, higher = more signal
Response key: fulfilled means z-score >= -0.4; not fulfilled means z-score < -0.4.

Given the entry C=CC[C@@H]1C=C[C@H](ON=C2C[C@@H](O)[C@@H](O)[C@@H]3[C@@H]4C(=O)N(CC)C(=O)[C@@H]4CC[C@@H]23)[C@@H](CO)O1 , answer whether its z-score meets or surpasses -0.4.
fulfilled

====

protocol description: basal S. cerevisiae growth modulation, no modifier, primary screen, OD600, strain BY4716, 24 h, basal condition (AID 1173)
condition set: OD600, 24 h, higher = more signal, called active from +8 up or from −8 down
Provide the reported z-score of each item.
Answers are plain numbers.

1) CCc1cc2c(nc1CC)CCN(CCC(C)=NO[C@@H]1O[C@H](COC(C)=O)[C@@H](OC(C)=O)[C@H](OC(C)=O)[C@H]1OC(C)=O)C2	-0.334
2) COC(=O)[C@H](C)NC(=O)CCC1CC(OC(=O)NCc2cccc3ccccc23)CC2(CCCC(COC(=O)NCc3ccccc3)O2)O1 (some centres undefined)	-0.79
3) CC(CCC(=O)OC[C@H]1O[C@H](C#Cc2ccccc2)C=C[C@@H]1Oc1ccc(C)cc1)=NO[C@@H](C)c1cc(-c2c(C)cc(C)cc2C)no1	0.0942
4) CC(=O)OC[C@H]1O[C@H](CC=NO[C@@H](C)c2cn([C@H](CO)Cc3ccccc3)nn2)C=C[C@@H]1OC(C)=O	-0.305

Record z-score for all entries; do not skip any.
1. CCOC(=O)CCN1C(=O)[C@H]2[C@H]3[C@H](O)[C@H](O)CC(=NO[C@@H]4O[C@H](CO)[C@@H](O)[C@H](O)[C@H]4O)[C@@H]3CC[C@H]2C1=O
2. O=C(NN=C1C[C@@H](O)[C@@H](O)[C@@H]2[C@@H]3C(=O)N(Cc4ccc5c(c4)OCO5)C(=O)[C@@H]3CC[C@@H]12)OCc1ccccc1
3. COc1ccc(COC(=O)NN=C2C[C@@H](O)[C@@H](O)[C@@H]3[C@@H]4C(=O)N([C@@H](C)c5ccccc5)C(=O)[C@@H]4CC[C@@H]23)cc1

-1.4
-1.59
0.501

Quick batch: z-score for everything below.
1. CC(CCN1CCCc2nc(C)c(C)cc21)=NO[C@@H](C)c1cn([C@H](CO)Cc2ccccc2)nn1
2. O=C1[C@H]2[C@H]3[C@H](O)[C@H](O)CC(=NO[C@@H]4O[C@H](CO)[C@@H](O)[C@H](O)[C@H]4O)[C@@H]3CC[C@H]2C(=O)N1c1cccc(Oc2ccccc2)c1

0.472
0.0857
